List of pKd values.
- TESTED SYSTEM: NHERF2_2, Q15599
- Sequence (Q15599 142-238): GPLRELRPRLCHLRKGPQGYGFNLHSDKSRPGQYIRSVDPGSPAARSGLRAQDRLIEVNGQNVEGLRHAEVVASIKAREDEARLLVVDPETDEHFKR
- EXPERIMENTAL PROTOCOL: holdup assay
- Set-up: key: below the threshold = too weak to quantify, mostly under pKd 3.1 to 4
- CONDITION DETAILS: plain residues with an end cap or a label only (N-terminal biotin on a linker: ttds)

>  <BINDER>
DLDEEEDTHL [PODXL, O00592]

>  <pKd>
5.39

$$$$
>  <BINDER>
GARVSKETPL [MAPK12, P53778]

>  <pKd>
4.09

$$$$
